Source of measurements: paper PMC9352680

# Target Or Test System: T1, PUF4 RNA-binding domain (Saccharomyces cerevisiae, UniProt P25339 537-888)
# T1 sequence: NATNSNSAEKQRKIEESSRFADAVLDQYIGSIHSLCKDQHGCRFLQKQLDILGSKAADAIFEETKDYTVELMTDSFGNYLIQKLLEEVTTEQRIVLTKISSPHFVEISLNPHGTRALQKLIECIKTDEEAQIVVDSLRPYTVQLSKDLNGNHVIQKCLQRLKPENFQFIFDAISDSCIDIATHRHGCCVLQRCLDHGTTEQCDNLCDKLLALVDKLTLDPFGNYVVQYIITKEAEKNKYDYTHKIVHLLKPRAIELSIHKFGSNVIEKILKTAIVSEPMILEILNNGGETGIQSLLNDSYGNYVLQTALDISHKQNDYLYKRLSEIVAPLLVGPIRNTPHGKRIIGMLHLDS
# Test Protocol: Mg; RNA-MaP; 20 mM Na-HEPES pH 7.4, 30 mM KOAc, 0.75 mM MgCl2, 0.1% Tween-20, 5% glycerol, 0.1 mg/mL BSA, 2 mM DTT; 25 C; 0.0125-409.6 nM protein
# Protocol Conditions: tags: N-His6-TEV cleaved; C-SNAP kept, Cy3B-labelled; label: tethered on chip by stalled RNA polymerase
Response field label takes 1 when Kd is strictly below 10 nM and -1 in all other cases.

Task item: Would you kindly verify if Kd of UCUCUUUGUAUUCGUCUCUU (ssRNA) [Ic_S1_P3E.1_K3.1_C3.1_H3.1_A3.1_[A6T]_F3.1_[T7C]_[A8G]_T3.1] is strictly less than 10 nM?
Reply: -1

Task item: Would you kindly verify if Kd of UCUCUUUGUAAGUUAGUCUCUU (ssRNA) [Ic_S1_P5E.1_K5.1_C5.1_H5.1_A5.1_[T5A]_[T6G]_[A7T]_F5.1_[T9A]_[A10G]_T5.1] is strictly less than 10 nM?
Reply: -1

Task item: Would you kindly verify if Kd of Ic_S2_P4E.1_K4.1_C4.1_H4.1_A4.1_[T5A]_[A6T]_[T7A]_F4.1_[T8A]_T4.1 (ssRNA) RNA: UUUGAUUAAUAUGAUAUCGUUCUUUCUUGUAAUAAAUUCUUUCUCGAUAUCAUAUUAAUCUUU is strictly less than 10 nM?
Reply: -1
